Tested on: Vero E6
Test: drug sensitivity score (DSS) for viability; higher = more toxic; extreme values may be limits of the assay
Settings: 72 h
test.readout: drug sensitivity score

Cc1ccccc1/N=N/c1ccc(NC(=O)c2ccnn2C)c(C)c1; 0
CCN(CC)CCN[C@@H](C(=O)OCCC(C)C)c1ccccc1 [camylofine-chlorhydrate]; 0
CN(C)CCOc1cc(-c2cn[nH]c2)ccc1NC(=O)C1COc2ccccc2O1 (centres undefined); 3.3
CCOC(=O)c1c[nH]cn1; 0
COc1ccccc1Oc1c(NS(=O)(=O)c2ccc(C(C)(C)C)cc2)nc(-c2ncccn2)nc1OCCO; 0.2
O=C1Nc2ccccc2C12OCC1(CO2)COC2(OC1)C(=O)Nc1ccccc12 (centres undefined); 0.1
C[C@H](/C=C/[C@H](C)C(C)(C)O)[C@H]1CC[C@H]2/C(=C/C=C3C[C@@H](O)C[C@H](O)C3)CCC[C@]12C; 0
O=C(O)c1cc(O)c2ccc(Cl)cc2n1; 0
CN(c1ccccc1CNc1nc(Nc2ccc3c(c2)CC(=O)N3)ncc1C(F)(F)F)S(C)(=O)=O; 9.6
COC(=O)Nc1ccc2[nH]cc(CCNC(C)=O)c2c1; 0
O=C1c2ccccc2C(=O)c2ccccc21; 0
CC1(C)[C@H]2CC[C@]1(C)[C@@H](O)[C@H]2O [cis-exo-camphanediol-2,3]; 0
Nc1nc(O)c2ncn(CCC(CO)CO)c2n1; 0
CCOC(=O)c1ccc(N2NC(=O)/C(=C/c3ccc([N+](=O)[O-])o3)C2=O)cc1; 0.1
O=C(NOCCO)c1cc(CN2OCCCC2=O)c(F)c(F)c1Nc1ccc(I)cc1F; 15
CN(c1nccc(=O)[nH]1)C1CCN(c2nc3ccccc3n2Cc2ccc(F)cc2)CC1; 0
O=C1C(CC[S+]([O-])c2ccccc2)C(=O)N(c2ccccc2)N1c1ccccc1 (centres undefined); 0
Cn1cccc1/C=C1\C(=O)NC(=O)c2ccccc21; 0.9
Cc1cc(O)c2c(=O)c3c(O)cc(O)c4c5c(O)cc(O)c6c(=O)c7c(O)cc(C)c8c1c2c(c34)c(c78)c65; 0

====

Tested on: Calu-3
Experiment: cell viability relative to DMSO; higher = less toxic
Details: 72 h; 100 nM
test.readout: cell viability (%)

N=C(N)NCCC[C@@H](NC(=O)[C@@H]1CCCN1C(=O)[C@@H]1CSSCCC(=O)N[C@@H](Cc2ccc(O)cc2)C(=O)N[C@@H](Cc2ccccc2)C(=O)N[C@@H](CCC(N)=O)C(=O)N[C@@H](CC(N)=O)C(=O)N1)C(=O)NCC(N)=O [desmopressin-acetate]; 110
COc1ccc(-c2coc3cc(O)ccc3c2=O)cc1; 102
CC1OC2(CS1)CN1CCC2CC1 (configuration not stated); 102
CO[C@H]1/C=C/O[C@@]2(C)Oc3c(C)c(O)c4c(O)c(c5c(nc6cc(C)ccn65)c4c3C2=O)NC(=O)/C(C)=C\C=C\[C@H](C)[C@H](O)[C@@H](C)[C@@H](O)[C@@H](C)[C@H](OC(C)=O)[C@@H]1C; 89
CCCN(CCC)CCc1cccc2c1CC(=O)N2; 99.7
CC12CCC(CC1=O)C2(C)C (stereo not drawn) [camphor-(+)]; 102
CCOc1ccc(Nc2nc(-c3c(C)nc4ccccn34)cs2)cc1; 103

====

System: U2OS
Assay: relative viability EC50 (midpoint between 100% and the lowest measured viability); higher = less toxic
Conditions: 72 h
Here the recorded relative viability EC50 is given for each entry.
test.readout: relative viability EC50

CC(/C=C/C(=O)NO)=C\[C@@H](C)C(=O)c1ccc(N(C)C)cc1 [trichostatin-a]; 0.162 µM
CCOC(=O)c1c[nH]cn1 [C-751]; > 10 µM
O=C(O)CNC(=O)c1c(O)c2ccccc2n(Cc2ccccc2)c1=O [IOX2]; > 10 µM
O=C(O)CCc1nc(-c2ccccc2)c(-c2ccccc2)o1 [oxaprozin]; > 10 µM
COC(=O)N[C@H](C(=O)N1CC2(CC2)C[C@H]1c1nc(-c2ccc3c(c2)C(F)(F)c2cc(-c4ccc5[nH]c([C@@H]6[C@H]7CC[C@H](C7)N6C(=O)[C@@H](NC(=O)OC)C(C)C)nc5c4)ccc2-3)c[nH]1)C(C)C [ledipasvir]; > 10 µM
C[C@H](/C=C/[C@H](C)C(C)(C)O)[C@H]1CC[C@H]2/C(=C/C=C3C[C@@H](O)C[C@H](O)C3)CCC[C@]12C [paricalcitol]; > 10 µM
C=C1/C(=C\C=C2/CCC[C@]3(C)[C@@H]([C@H](C)OCCC(C)(C)O)CC[C@@H]23)C[C@@H](O)C[C@@H]1O [maxacalcitol]; > 10 µM
